- tested system: T1, ECF11_987
- T1 chain: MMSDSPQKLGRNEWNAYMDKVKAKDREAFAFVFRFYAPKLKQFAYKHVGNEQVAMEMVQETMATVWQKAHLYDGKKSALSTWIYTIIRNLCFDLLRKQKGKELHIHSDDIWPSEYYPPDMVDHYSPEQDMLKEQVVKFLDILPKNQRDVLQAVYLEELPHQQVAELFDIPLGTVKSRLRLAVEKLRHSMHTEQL
Lab note: anything with fold repression below 10 is marked 1; values at 10 or higher are marked -1.

Request: In the record for AS11_987 (protein) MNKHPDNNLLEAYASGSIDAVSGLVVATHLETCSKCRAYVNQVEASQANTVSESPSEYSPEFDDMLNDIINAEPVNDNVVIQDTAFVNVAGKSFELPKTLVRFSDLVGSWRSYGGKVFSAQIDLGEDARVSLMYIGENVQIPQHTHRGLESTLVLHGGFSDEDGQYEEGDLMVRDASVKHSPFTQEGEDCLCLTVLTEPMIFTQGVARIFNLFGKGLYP , is fold repression less than 10?
Response: -1

Request: Try AS30_35 (protein) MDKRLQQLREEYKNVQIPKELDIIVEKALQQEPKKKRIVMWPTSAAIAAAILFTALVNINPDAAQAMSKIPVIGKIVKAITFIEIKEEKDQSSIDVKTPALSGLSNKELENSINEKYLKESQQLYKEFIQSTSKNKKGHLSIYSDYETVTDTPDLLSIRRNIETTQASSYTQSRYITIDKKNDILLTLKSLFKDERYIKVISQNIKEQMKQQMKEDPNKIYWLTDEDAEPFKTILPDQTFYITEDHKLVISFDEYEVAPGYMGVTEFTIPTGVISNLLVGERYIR next.
Response: 1

Request: Try AS20_992 (protein) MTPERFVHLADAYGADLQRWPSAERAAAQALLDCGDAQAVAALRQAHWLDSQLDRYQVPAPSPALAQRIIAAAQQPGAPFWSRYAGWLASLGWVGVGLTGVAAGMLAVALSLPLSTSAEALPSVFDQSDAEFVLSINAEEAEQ next.
Response: 1

Request: Try AS16_973 (protein) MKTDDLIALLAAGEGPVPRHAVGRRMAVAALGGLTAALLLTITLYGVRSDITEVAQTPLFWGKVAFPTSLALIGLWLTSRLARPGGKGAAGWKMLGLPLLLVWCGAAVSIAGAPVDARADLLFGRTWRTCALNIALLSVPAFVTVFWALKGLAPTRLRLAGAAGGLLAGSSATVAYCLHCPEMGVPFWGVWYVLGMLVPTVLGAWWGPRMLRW next.
Response: 1

Origin of measurements: paper PMC3817407
